systemUnderTest: SIRT1 (Homo sapiens, UniProt Q96EB6)
Sequence (Q96EB6 1-747): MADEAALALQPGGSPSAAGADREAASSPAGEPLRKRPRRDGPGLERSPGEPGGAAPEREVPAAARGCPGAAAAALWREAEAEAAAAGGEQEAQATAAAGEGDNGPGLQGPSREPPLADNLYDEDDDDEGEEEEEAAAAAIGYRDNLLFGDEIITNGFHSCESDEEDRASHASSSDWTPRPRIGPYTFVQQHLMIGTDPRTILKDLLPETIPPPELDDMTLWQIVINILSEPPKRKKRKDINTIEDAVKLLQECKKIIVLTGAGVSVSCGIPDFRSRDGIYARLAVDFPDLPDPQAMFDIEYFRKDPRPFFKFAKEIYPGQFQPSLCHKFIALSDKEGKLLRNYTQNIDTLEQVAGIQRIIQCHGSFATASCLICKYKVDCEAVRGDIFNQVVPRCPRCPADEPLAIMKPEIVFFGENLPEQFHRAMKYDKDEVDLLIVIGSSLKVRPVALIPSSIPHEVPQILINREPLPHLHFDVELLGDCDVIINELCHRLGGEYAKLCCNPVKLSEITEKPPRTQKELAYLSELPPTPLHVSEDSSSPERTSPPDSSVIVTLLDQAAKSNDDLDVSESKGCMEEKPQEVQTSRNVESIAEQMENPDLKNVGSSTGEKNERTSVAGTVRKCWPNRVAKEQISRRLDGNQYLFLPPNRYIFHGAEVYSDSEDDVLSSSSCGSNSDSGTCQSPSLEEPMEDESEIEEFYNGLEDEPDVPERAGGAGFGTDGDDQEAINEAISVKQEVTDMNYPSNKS
measurementProtocol: TAMRA based mass spectrometry assay of SIRT1 activity
Assay type: biochemical
assayContext: TAMRA assay; concentration giving 150% activation of SIRT1
recordedEndpoint: TAMRA EC1.5 (μM)

Previously resolved entries follow.
- compound: "Cc1ncccc1NC(=O)c1c(C)nn2ccc(-c3ccccc3C(F)(F)F)nc12"
  measured: "A (EC1.5<1 μM)"
- compound: "Cc1cccc(C(=O)Nc2cnn3ccc(-c4ccccc4OC(F)(F)F)nc23)n1"
  measured: "A (EC1.5<1 μM)"
- compound: "Cc1cnc(NC(=O)c2c(C)nc3ccc(-c4cccc(OC[C@H](O)CO)c4)nn23)s1"
  measured: "A (EC1.5<1 μM)"
- compound: "O=C(Nc1cnc2ccc(-c3ccccc3OC(F)(F)F)nn12)c1ccccn1"
  measured: "A (EC1.5<1 μM)"
- compound: "Cc1cc(OCC(F)(F)F)nc(NC(=O)c2cnc3ccc(-c4ccccc4C(F)(F)F)nn23)n1"
  measured: "A (EC1.5<1 μM)"

### Prompt Give recorded TAMRA EC1.5 (μM) with SIRT1 (Homo sapiens, UniProt Q96EB6) for the following compound: O=C(Nc1cncc(OCC(O)CO)n1)c1c(O)nc2ccc(-c3ccccc3C(F)(F)F)nn12 (centres unmarked)
### Response B (EC1.5 1-25 μM)

### Prompt For SIRT1 (Homo sapiens, UniProt Q96EB6), provide TAMRA EC1.5 (μM) of N#Cc1ccccc1-c1ccc2ncc(C(=O)Nc3ccccn3)n2n1 please.
### Response B (EC1.5 1-25 μM)

---

Property: Emax; scope: individual molecules
systemUnderTest: SIRT1 (Homo sapiens)
measurementProtocol: TAMRA based mass spectrometry assay of SIRT1 activity
Assay type: biochemical
assayContext: percent maximum fold activation of SIRT1; TAMRA peptide substrate; read-out: TAMRA % Fold Act

The following molecules have reported results that may help.
- substanceSmiles: "O=C(Nc1cnc2ccc(-c3ccccc3C(F)(F)F)nn12)c1cccc(CN2CCOCC2)n1"
  Emax: "≥ 350%"
- substanceSmiles: "Cc1noc(C)c1-c1ccc2ncc(C(=O)Nc3ccnc(N4CCC4)c3)n2n1"
  Emax: "< 350%"
- substanceSmiles: "O=C(Nc1ccncc1)c1cnc2ccc(-c3cccc(Cl)c3F)nn12"
  Emax: "< 350%"
- substanceSmiles: "O=C(Nc1cccnc1)c1cnc2ccc(-c3cccc(C(F)(F)F)c3)nn12"
  Emax: "< 350%"
- substanceSmiles: "Cc1ncccc1-c1ccc2ncc(C(=O)Nc3cccc(N4CCOCC4)n3)n2n1"
  Emax: "< 350%"
- substanceSmiles: "O=C(Nc1ccnc(N2CCOCC2)c1)c1cnc2ccc(-c3ccccc3C(F)(F)F)nn12"
  Emax: "≥ 350%"

### Prompt Reported Emax for O=C(Nc1cccnc1)c1cnc2ccc(-c3ccc(F)c(F)c3F)nn12 : what is it?
### Response < 350%

### Prompt Which Emax is reported for this molecule? O=C(Nc1cccc(CN2CCOCC2)n1)c1cnc2ccc(-c3cccc(Cl)c3)nn12
### Response ≥ 350%

---

systemUnderTest: SIRT1 (Homo sapiens, UniProt Q96EB6)
measurementProtocol: Trp mass spectrometry assay of SIRT1 activity
Assay type: biochemical
assayContext: Trp assay; percent maximum fold activation; read-out: Trp % Fold Act
recordedEndpoint: Emax

- compound: "O=C(Nc1cnc2ccc(-c3ccccc3OC(F)(F)F)nn12)c1cccc(N2CCOCC2)n1"
  measured: "≥ 350%"
- compound: "CC(C)c1csc(C(=O)Nc2cnn3ccc(-c4ccccc4C(F)(F)F)nc23)n1"
  measured: "< 350%"
- compound: "CC1CCN(c2ccc3ncc(C(=O)Nc4ccccn4)n3n2)C1 (stereo not shown)"
  measured: "< 350%"

Then there is this compound:
### Prompt Param readout = Emax; param system = SIRT1 (Homo sapiens, UniProt Q96EB6); param query = Cc1cnc(NC(=O)c2c(C)nc3ccc(-c4ccccc4OC[C@H](O)CO)nn23)s1 ; response: value
### Response < 350%

---

systemUnderTest: SIRT1 (Homo sapiens, UniProt Q96EB6)
Sequence (Q96EB6 1-747): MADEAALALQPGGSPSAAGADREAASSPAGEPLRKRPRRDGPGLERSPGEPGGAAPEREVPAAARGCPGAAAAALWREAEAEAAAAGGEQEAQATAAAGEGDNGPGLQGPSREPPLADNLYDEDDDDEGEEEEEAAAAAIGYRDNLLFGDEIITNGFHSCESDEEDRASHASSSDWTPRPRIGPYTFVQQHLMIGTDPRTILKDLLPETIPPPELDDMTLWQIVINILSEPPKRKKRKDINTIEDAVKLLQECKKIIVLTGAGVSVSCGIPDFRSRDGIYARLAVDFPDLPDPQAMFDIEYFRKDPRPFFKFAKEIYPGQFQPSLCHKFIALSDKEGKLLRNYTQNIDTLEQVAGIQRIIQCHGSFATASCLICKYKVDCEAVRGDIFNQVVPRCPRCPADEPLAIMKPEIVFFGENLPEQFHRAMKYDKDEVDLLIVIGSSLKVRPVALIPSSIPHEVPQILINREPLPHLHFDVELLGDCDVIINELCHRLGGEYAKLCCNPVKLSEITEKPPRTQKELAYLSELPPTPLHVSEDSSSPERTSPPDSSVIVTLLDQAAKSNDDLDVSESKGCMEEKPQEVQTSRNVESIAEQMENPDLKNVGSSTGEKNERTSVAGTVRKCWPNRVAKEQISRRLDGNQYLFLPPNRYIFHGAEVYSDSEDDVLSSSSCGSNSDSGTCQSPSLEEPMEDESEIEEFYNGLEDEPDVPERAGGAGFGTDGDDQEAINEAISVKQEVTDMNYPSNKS
measurementProtocol: TAMRA based mass spectrometry assay of SIRT1 activity
Format: biochemical
assayContext: TAMRA assay; percent maximum fold activation; read-out: TAMRA % Fold Act
recordedEndpoint: Emax

- substanceSmiles: "Cc1nc2ccc(-c3ccccc3F)nn2c1C(=O)Nc1cccnn1"
  systemUnderTest: "SIRT1 (Homo sapiens, UniProt Q96EB6)"
  Emax: "< 350%"
- substanceSmiles: "CC(C)c1csc(C(=O)Nc2cnc3ccc(-c4ccccc4C(F)(F)F)nn23)n1"
  systemUnderTest: "SIRT1 (Homo sapiens, UniProt Q96EB6)"
  Emax: "≥ 350%"
- substanceSmiles: "CC(C)c1nccc(C(=O)Nc2cnc3ccc(-c4ccccc4C(F)(F)F)nn23)n1"
  systemUnderTest: "SIRT1 (Homo sapiens, UniProt Q96EB6)"
  Emax: "≥ 350%"
- substanceSmiles: "Cc1cc(C)c(NC(=O)c2cnn3ccc(-c4ccccc4C(F)(F)F)nc23)cn1"
  systemUnderTest: "SIRT1 (Homo sapiens, UniProt Q96EB6)"
  Emax: "< 350%"
- substanceSmiles: "COCCOc1nccc(NC(=O)c2cnc3ccc(-c4ccccc4C(F)(F)F)nn23)n1"
  systemUnderTest: "SIRT1 (Homo sapiens, UniProt Q96EB6)"
  Emax: "≥ 350%"

### Prompt Could you tell me which Emax is on file for CCOc1ccc(NC(=O)c2c(C)nc3ccc(-c4cccc(C)c4)nn23)nn1 ?
### Response < 350%

### Prompt Could you tell me which Emax is on file for Cc1cnc(NC(=O)c2c(C)nn3ccc(-c4ccccc4C(F)(F)F)nc23)cn1 ?
### Response ≥ 350%

### Prompt Fill in: Emax of Cc1ccnc(NC(=O)c2c(C)nn3ccc(-c4ccccc4C(F)(F)F)nc23)c1 is ___
### Response ≥ 350%
